SYSTEM NAME: T1, Coagulation Factor Va (FVa), modified (Homo sapiens, UniProt P12259;P12259 P12259:29-737,P12259:1574-2224)
T1 chain 1: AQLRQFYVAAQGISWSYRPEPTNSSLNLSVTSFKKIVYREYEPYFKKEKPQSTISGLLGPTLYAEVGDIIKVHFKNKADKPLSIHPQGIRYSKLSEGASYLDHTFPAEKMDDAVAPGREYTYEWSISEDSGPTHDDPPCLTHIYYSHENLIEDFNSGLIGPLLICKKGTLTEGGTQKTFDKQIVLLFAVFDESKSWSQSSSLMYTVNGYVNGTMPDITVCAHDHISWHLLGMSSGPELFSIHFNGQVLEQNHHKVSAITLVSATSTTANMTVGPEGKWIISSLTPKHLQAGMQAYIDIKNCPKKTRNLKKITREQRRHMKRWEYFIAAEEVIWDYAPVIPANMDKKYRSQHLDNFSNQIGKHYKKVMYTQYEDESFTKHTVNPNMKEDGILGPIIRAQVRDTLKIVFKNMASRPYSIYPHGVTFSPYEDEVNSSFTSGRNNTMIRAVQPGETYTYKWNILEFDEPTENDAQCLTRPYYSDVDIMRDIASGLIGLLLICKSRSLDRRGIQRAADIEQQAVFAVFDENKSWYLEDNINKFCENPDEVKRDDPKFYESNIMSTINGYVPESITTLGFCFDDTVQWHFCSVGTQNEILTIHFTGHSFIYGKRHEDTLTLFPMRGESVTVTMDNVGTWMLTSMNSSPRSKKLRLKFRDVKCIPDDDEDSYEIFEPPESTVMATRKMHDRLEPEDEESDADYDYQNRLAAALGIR
T1 chain 2: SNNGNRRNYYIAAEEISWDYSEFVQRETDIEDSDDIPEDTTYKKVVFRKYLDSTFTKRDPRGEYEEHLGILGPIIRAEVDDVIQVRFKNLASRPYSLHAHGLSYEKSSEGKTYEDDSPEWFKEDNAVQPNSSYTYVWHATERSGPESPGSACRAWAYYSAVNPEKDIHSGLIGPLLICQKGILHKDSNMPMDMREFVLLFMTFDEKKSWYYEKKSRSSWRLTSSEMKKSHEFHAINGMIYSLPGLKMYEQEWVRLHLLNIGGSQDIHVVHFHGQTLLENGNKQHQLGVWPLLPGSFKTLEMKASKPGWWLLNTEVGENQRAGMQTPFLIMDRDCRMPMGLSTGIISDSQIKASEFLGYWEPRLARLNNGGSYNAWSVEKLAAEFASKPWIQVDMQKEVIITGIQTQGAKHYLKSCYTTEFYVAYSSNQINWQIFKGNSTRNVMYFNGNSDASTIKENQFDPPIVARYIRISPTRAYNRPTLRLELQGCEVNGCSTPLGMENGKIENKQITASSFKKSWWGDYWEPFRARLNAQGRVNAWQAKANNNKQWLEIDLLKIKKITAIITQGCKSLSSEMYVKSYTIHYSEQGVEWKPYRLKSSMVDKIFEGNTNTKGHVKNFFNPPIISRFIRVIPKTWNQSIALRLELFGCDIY
ASSAY NOTES: filter; HBS 2 mM CaCl2, 0.01% BSA, 0.1% PEG 8000, 37 C; low Bmax
DETAILS: tags: modified FVa, protease-stabilised form described previously; label: 5'-32P
READOUT NAME: Kd (nM)
Dear colleague, please return just the value in nM, with no unit written.

*Q* # input binder: GGAUCCAACGCACAAUUACGUGCCUUGUCAGACGACUCGCUGAGGAUCC (ssRNA, 2'-F C and U) [11HMT] ; wanted: its Kd
*A* 0.822
